Molecular target: UniProt:Q15118
Sequence (Q15118 whole entry, the tested form may be a part): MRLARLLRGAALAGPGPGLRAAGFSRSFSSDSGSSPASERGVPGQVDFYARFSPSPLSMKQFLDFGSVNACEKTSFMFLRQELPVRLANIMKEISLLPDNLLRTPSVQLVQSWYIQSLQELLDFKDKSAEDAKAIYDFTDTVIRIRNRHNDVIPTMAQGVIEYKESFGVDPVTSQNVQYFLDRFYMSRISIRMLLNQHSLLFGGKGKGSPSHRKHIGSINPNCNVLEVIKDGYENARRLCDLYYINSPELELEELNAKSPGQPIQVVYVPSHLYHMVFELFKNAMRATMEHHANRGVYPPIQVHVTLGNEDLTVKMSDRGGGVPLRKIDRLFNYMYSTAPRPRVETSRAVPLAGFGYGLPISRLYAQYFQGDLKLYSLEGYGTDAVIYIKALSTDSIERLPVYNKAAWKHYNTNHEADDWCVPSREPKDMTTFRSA
Test: Binding affinity to recombinant N-terminal 6xHis-SUMO-tagged human PDK1 (29 to 436 residues) expressed in Escherichia coli BL-21 by isothermal titration calorimetric method
Property Name: Kd (µM)
Give bare numbers, in µM.

## Task Returns the measured Kd for the input molecule. Input: O=C(Nc1ccc(Cl)c(C(F)(F)F)c1)C(Cl)Cl
## Result 40.8

* * *

Test: Cytotoxicity against human MCF10A cells assessed as growth inhibition at 20 uM after 72 hrs by MTT assay relative to control
Assay type: cell-based, MCF-10A
Details: read-out: GI
Property Name: inhibition at 72 h, 20 µM (%)
Give bare numbers, in %.

Molecule	Uom	inhibition at 72 h, 20 µM
O=C([O-])C(Cl)Cl.[Na+] [SODIUM DICHLOROACETATE]	%	3.42

Next, consider the following molecule.
## Task Returns the measured inhibition at 72 h, 20 µM for the input molecule. Input: O=C(Nc1ccc(Cl)c(C(F)(F)F)c1)C(Cl)Cl
## Result 10.3
